src = patent US20130053541A1

This listing pairs binders with measured Sample B (Probe) Signal.
Test system: T1, native human ESRRG protein (Estrogen-receptor related receptor gamma) (human, UniProt P62508 229-458, limits assumed)
T1 construct: the screened protein is called 'native human ESRRG protein'; also called ESSRG; ERRγ
T1 sequence (looked up): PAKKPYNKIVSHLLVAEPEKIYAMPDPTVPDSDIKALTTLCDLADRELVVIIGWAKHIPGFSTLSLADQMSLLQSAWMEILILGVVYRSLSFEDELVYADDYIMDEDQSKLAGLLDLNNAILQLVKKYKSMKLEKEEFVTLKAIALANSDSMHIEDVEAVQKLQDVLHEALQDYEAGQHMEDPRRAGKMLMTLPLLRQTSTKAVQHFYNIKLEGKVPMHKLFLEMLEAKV
Test method notes: peptide microarray, Iteration 1; bound ESRRG detected with fluorescent anti-ESRRG mAb
Where no end group is shown, it is not given here.

Lab book: Sample B (Probe) Signal of "Ac-ANNSSLLH" noted as 1150 fluorescence intensity units

Just so you know, measured Sample B (Probe) Signal for "Ac-KSLLQQLL" came out at 7390 fluorescence intensity units

So for "Ac-AANMFLLL" , the logged Sample B (Probe) Signal turned out to be 1750 fluorescence intensity units
